System: E. cloacae
MEASUREMENT DESCRIPTION: Checkerboard assay (antibiotic potentiation)
Assay type: cell-based, Enterobacter cloacae
CONDITION DESCRIPTION: E. cloacae 121887 (colistin-resistant); antibiotic MIC with 8 µg/mL (5 µM) compound 1
Exam item: assign fulfilled to entries whose MICantibiotic + compound is below 0.5 µg/mL and not fulfilled to entries at or above 0.5 µg/mL. Note that a value of exactly 0.5 µg/mL receives not fulfilled.

[[record]]
compound = "CO[C@H]1/C=C/O[C@@]2(C)Oc3c(C)c(O)c4c(O)c(c(/C=N/N5CCN(C)CC5)c(O)c4c3C2=O)NC(=O)/C(C)=C\\C=C\\[C@H](C)[C@H](O)[C@@H](C)[C@@H](O)[C@@H](C)[C@H](OC(C)=O)[C@@H]1C [Rifampicin]"
measured_target = "E. cloacae"
label = "not fulfilled"

[[record]]
compound = "C[C@@H]1CN2c3c(cc4c(N5C(=O)OC[C@@H]5C)noc4c3F)CC3(C(=O)NC(=O)NC3=O)[C@H]2[C@H](C)O1 [Zoliflodacin]"
measured_target = "E. cloacae"
label = "not fulfilled"

[[record]]
compound = "CC(C)(O/N=C(\\C(=O)N[C@@H]1C(=O)N2C(C(=O)[O-])=C(C[n+]3ccccc3)CS[C@H]12)c1csc(N)n1)C(=O)O [Ceftazidime]"
measured_target = "E. cloacae"
label = "fulfilled"

[[record]]
compound = "C[C@H]1COc2c(N3CCN(C)CC3)c(F)cc3c(=O)c(C(=O)O)cn1c23 [Levofloxacin]"
measured_target = "E. cloacae"
label = "not fulfilled"


Hey, just so you know, these numbers are from paper PMC12587545.
